Below: a set of entries, each annotated with reported MIC.
system: Enterococcus faecalis ATCC29212
*1 amine or outer side, *2 acyl side, *3 side chain or, on linkers, in order; H or OH if unused. Where a SMILES comes first, the peptide text is derived from it. [ ]: non-standard residue; d: D form. ξ: configuration not given here. Trp(1-(1,1-Me2-allyl)) = C=CC(C)(C)n1cc(C[C@H](N)C(=O)O)c2ccccc21; NMeGlu(4S-Me) = C[C@@H](C[C@@H](C(=O)[*:2])N(C)[*:1])C(=O)[*:3]; Tyr(3-NO2) = N[CH](Cc1ccc(O)c([N+](=O)[O-])c1)C(=O)O; X1 = CC(C)(C1CO1)n1cc(CC(N[*:1])C(=O)[*:2])c2ccccc21; X2 = CC(CC(C(=O)[*:2])N(C)[*:1])C(=O)O; Gly(E-crotyl) = C/C=C/C[C@H](N)C(=O)O; ξNle(4,5-dehydro) = CC=CCC(N)C(=O)O; NMeL = CN[CH](CC(C)C)C(=O)O

Worked examples follow.
C=CC(C)(C)n1cc(C[C@@H]2NC(=O)[C@H](C/C=C/C)NC(=O)[C@H](CC(C)C)NC(=O)[C@H](C[C@H](C)C(=O)O)N(C)C(=O)[C@H](C)NC(=O)[C@H](Cc3ccc(O)c([N+](=O)[O-])c3)NC(=O)[C@H](CC(C)C)N(C)C2=O)c2ccccc21 [compound 8, ilamycin F] (cyclo(A[NMeGlu(4S-Me)]L[Gly(E-crotyl)][Trp(1-(1,1-Me2-allyl))][NMeL][Tyr(3-NO2)])): > 123 µM
C=CC(C)(C)n1cc(C[C@@H]2NC(=O)[C@H](C/C=C/C)NC(=O)[C@H](CC(C)C)N3C(=O)[C@H](C[C@H](C)C3O)N(C)C(=O)[C@H](C)NC(=O)[C@H](Cc3ccc(O)c([N+](=O)[O-])c3)NC(=O)[C@H](CC(C)C)N(C)C2=O)c2ccccc21 (stereo partly drawn): > 125 µM

So what's the measured MIC for this one? CC=CCC1NC(=O)C(CC(C)C)NC(=O)C(CC(C)C(=O)O)N(C)C(=O)C(C)NC(=O)C(Cc2ccc(O)c([N+](=O)[O-])c2)NC(=O)C(CC(C)C)N(C)C(=O)C(Cc2cn(C(C)(C)C3CO3)c3ccccc23)NC1=O (stereo not drawn) [compound 5, ilamycin D] (cyclo([X2]L[ξNle(4,5-dehydro)][X1][NMeL][Tyr(3-NO2)]A); configuration not given here)
> 121 µM
